Hey, just so you know, these numbers are from patent US20170050966A1.

Experiment: Metabolic stability in liver microsomes
Assay type: in vitro ADME
Conditions: rat liver microsomes, female; read-out: Female Half-Life
Procedure: Metabolic stability of the compounds of Formula (I) was determined by standard liver microsome assays. Briefly, metabolic stability was tested by adding the compound to be tested dissolved in DMSO to human, dog, or rat liver microsomes. Assays were run with a starting concentration of 1 μM test compound. […] Following quench and centrifugation, samples were analyzed on HPLC/MS/MS.
MEASURED_METRIC: half-life at 1 μM (min)
Give bare numbers, in min.

## Task So what's the measured half-life at 1 μM for this one? C[C@@H](C(=O)Nc1ccnc(-c2cnc(N3CCCC3(C)C)nc2)n1)n1cnc2c1c(=O)n(C)c(=O)n2C
## Result 46

---

Consider the following molecules; for each one, report its bioavailability.
Test: Oral bioavailability of solutions in non-fasted rats
Settings: rat, in vivo, oral solution, read-out: Rat % F
Numbers only, in %.

>>> observed_value("C[C@@H](C(=O)Nc1ccnc(-c2cnc(N3CCC[C@H]3C(F)(F)F)nc2)n1)n1cnc2c1c(=O)n(C)c(=O)n2C [Compound 2]")
100
>>> observed_value("C[C@@H](C(=O)Nc1ccnc(-c2cnc(N3CC4CC4C3)nc2)n1)n1cnc2c1c(=O)n(C)c(=O)n2C (some centres unmarked) [Compound 15]")
35
>>> observed_value("C[C@@H](C(=O)Nc1ccnc(-c2cnc(N3CCC[C@@H]3C(F)(F)F)nc2)n1)n1cnc2c1c(=O)n(C)c(=O)n2C [Compound 4]")
100
>>> observed_value("C[C@@H](C(=O)Nc1ccnc(-c2cnc(N3CCCC3(C)C)nc2)n1)n1cnc2c1c(=O)n(C)c(=O)n2C [Compound 1]")
46

## Task So what's the measured bioavailability for this one? C[C@H]1CCCN1c1ncc(-c2nccc(NC(=O)Cn3cnc4c3c(=O)n(C)c(=O)n4C)n2)cn1 [Compound 19]
## Result 77

---

Test: Kinetic solubility in buffered solutions
Assay type: physicochemical
Conditions: sodium acetate buffer, aqueous buffer, kinetic from dmso stock; pH 4.0, 50 mM sodium acetate, 24 hours ambient; read-out: pH 4.0 solubility
Procedure: The solubilities of the compounds of Formula (I) were tested using the procedure outlined in Kerns, E. H., J Pharm Sci (2001) 90:1838-1858, incorporated herein by reference and described below. Data for solubility was obtained by this method for compounds of Formula (I) and included in Table 3. The chromatographic data was performed by HPLC using an Xbridge Shield RP18 column with the following column dimensions: 4.6×30 mm, 3.5 μm. […]
Label No if solubility kinetic at 24 h falls below 10 µg/mL; label Yes in every other case.

## Task Say whether C[C@@H](C(=O)Nc1ccnc(-c2cnc(N3CCC[C@H]3C(F)(F)F)nc2)n1)n1cnc2c1c(=O)n(C)c(=O)n2C shows solubility kinetic at 24 h of 10 µg/mL or more.
## Result Yes

---

Consider the following compounds; for each one, report its half-life at 1 μM.
Assay: Metabolic stability in liver microsomes
Type: in vitro ADME
Conditions: rat liver microsomes, male; read-out: Male Half-Life
Mention the unit after the number when you answer.

>>> observed_value("C[C@H]1CCCN1c1ncc(-c2nccc(NC(=O)Cn3cnc4c3c(=O)n(C)c(=O)n4C)n2)cn1")
"36 min"
>>> observed_value("C[C@@H](C(=O)Nc1ccnc(-c2cnc(N3CCC[C@H]3C(F)(F)F)nc2)n1)n1cnc2c1c(=O)n(C)c(=O)n2C")
"787 min"
>>> observed_value("C[C@H]1CCCN1c1ncc(-c2nccc(NC(=O)[C@H](C)n3cnc4c3c(=O)n(C)c(=O)n4C)n2)cn1")
"16 min"

Note: attention shifts to another entry.
## Task So what's the measured half-life at 1 μM for this one? C[C@@H](C(=O)Nc1ccnc(-c2cnc(N3CCCC3(C)C)nc2)n1)n1cnc2c1c(=O)n(C)c(=O)n2C
## Result 22 min
